Target: UniProtKB Q61009
Test: enhancers of DiI-HDL lipid transfer via SR-BI – cell-based, ldlA[mSR-BI] CHO, DiI fluorescence, cherry-pick, dose response (AID 602191);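 also: cell fluorescence from internalized DiI-labeled HDL after washing; 0% = median of DMSO wells and 100% = twice the DMSO signal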
Details: ldlA[mSR-BI] CHO cells, 3 h, at 35 µM (top of the series)
Measurement Label: activation (HDL uptake increase) (%)
Express your answer in %, writing the number without its unit.

Take a look at these entries with their results.
{"Compound": "CC(CN(C)Cc1ccccc1)OC(=O)c1cccc(F)c1 (centres undefined)", "Result Units": "%", "activation (HDL uptake increase)": -8.97}
{"Compound": "Cc1ccc(S(=O)(=O)N(CCC(=O)NCC(c2ccccc2)N(C)C)c2ccccc2)cc1 (centres undefined)", "Result Units": "%", "activation (HDL uptake increase)": -5.72}
{"Compound": "COc1ccc(C(=O)C2CCCN(C(=O)/C=C/c3ccccn3)C2)c(C)c1 (centres undefined)", "Result Units": "%", "activation (HDL uptake increase)": -6.34}
{"Compound": "COc1ccccc1CNC(=O)COC(=O)CSc1ccc(C)c(C)c1", "Result Units": "%", "activation (HDL uptake increase)": -0.519}
{"Compound": "Cc1cccc(C)c1OCc1cc(C(=O)N2CCC(c3ccccc3)CC2)no1", "Result Units": "%", "activation (HDL uptake increase)": 2.24}
{"Compound": "C=CCC[C@@H](Cc1ccc(F)cc1)C(=O)OC[C@@H](Cc1c[nH]c2ccccc12)NC(=O)[C@@H](CC=C)CC(=O)N[C@@H](CO)Cc1ccccc1", "Result Units": "%", "activation (HDL uptake increase)": 47.8}

Query: Look at this compound and give its reported activation (HDL uptake increase). COC(=O)C1=C(c2ccc(F)cc2OCc2ccccc2)C[C@@H]2CC[C@H]1N2C(=O)N1CCC(O)CC1
Response: -7.61

Query: Which activation (HDL uptake increase) value is on record for CCCCN(C(=O)c1cc2c(s1)CCC2)c1c(N)n(CC(C)C)c(=O)[nH]c1=O ?
Response: -6.82

Query: Could you share which activation (HDL uptake increase) value was measured for O=C(CCN1C(=O)/C(=C\C=C\c2ccccc2)SC1=S)Nc1ccc(C(=O)O)cc1 ?
Response: -14.1

----------
Readings of activation (HDL uptake increase) for the listed molecules
Biological target: Scavenger receptor class B member 1 (Mus musculus)
Assay: enhancers of DiI-HDL lipid transfer via SR-BI – cell-based, ldlA[mSR-BI] CHO, DiI fluorescence, cherry-pick, dose response (AID 602191)
Conditions: ldlA[mSR-BI] CHO cells, 3 h, at 35 µM (top of the series)
Give the value, in units of %, as a plain number.

{"Molecule": "COc1ccc(N(CC(=O)NCc2ccccc2)S(=O)(=O)c2c(C)nn(C)c2C)cc1", "activation (HDL uptake increase), %": -6.65}
{"Molecule": "COc1ccc(N2CC(NC(=O)N3CCN(C(=O)c4ccco4)CC3)CC2=O)cc1OC (stereo not given)", "activation (HDL uptake increase), %": 11}
{"Molecule": "COc1ccc(N(CC(=O)NCCSc2ccccn2)S(=O)(=O)c2ccc(C)cc2)cc1OC", "activation (HDL uptake increase), %": -0.821}
{"Molecule": "O=c1[nH]c(C2CCN(S(=O)(=O)c3ccc4c(c3)OCCO4)CC2)nc2c1nnn2Cc1ccc(F)cc1", "activation (HDL uptake increase), %": -4.95}

Query: # get_value(readout='activation (HDL uptake increase)', item= O=C(CSc1nnnn1-c1ccccc1)N1CCNC1=O )
Response: -10.4

Query: Give its activation (HDL uptake increase) value. Item: CN(C(=O)COC(=O)CN1C(=O)c2cccc([N+](=O)[O-])c2C1=O)c1ccccc1
Response: -5.58

Query: Please give the measured activation (HDL uptake increase) for this molecule: Cc1ccc(O)c(NC(=S)NC(=O)c2ccc(-c3ccc(Cl)cc3)o2)c1
Response: -9.38

----------
Target: Scavenger receptor class B member 1 (Mus musculus) (UniProt Q61009)
Sequence (Q61009 whole entry, looked up): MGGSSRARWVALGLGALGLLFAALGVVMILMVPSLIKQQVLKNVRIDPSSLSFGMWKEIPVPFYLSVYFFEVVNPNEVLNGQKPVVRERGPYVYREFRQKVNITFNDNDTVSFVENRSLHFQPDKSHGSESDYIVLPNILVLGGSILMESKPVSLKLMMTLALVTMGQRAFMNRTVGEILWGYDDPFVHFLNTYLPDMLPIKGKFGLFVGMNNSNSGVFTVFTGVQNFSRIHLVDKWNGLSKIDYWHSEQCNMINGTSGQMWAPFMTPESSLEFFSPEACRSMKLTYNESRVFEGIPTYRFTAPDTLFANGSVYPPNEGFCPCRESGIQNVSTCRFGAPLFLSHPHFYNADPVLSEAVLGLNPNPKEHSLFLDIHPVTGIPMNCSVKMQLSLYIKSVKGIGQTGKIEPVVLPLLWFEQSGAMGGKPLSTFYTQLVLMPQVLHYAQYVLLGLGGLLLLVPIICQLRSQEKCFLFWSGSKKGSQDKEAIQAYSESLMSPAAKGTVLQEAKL
Test: enhancers of DiI-HDL lipid transfer via SR-BI – cell-based, ldlA[mSR-BI] CHO, DiI fluorescence, cherry-pick, dose response (AID 602191);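 also: cell fluorescence from internalized DiI-labeled HDL after washing; 0% = median of DMSO wells and 100% = twice the DMSO signal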
Conditions: ldlA[mSR-BI] CHO cells, 3 h, at 35 µM (top of the series)
Measurement Label: activation (HDL uptake increase) (%)
I only need the number, in %, no unit after it.

{"Molecule": "COc1cccc(OC)c1C(=O)N1CCN(Cc2ccccc2C)CC1", "Result Units": "%", "Meas Value": -7.18}
{"Molecule": "Cc1nc2c3ccccc3nc(NNC(=O)CCC(=O)N3CCN(c4ccccc4)CC3)n2n1", "Result Units": "%", "Meas Value": 6.41}

Query: Data request, read-out activation (HDL uptake increase), for O=C(Cc1ccc(S(=O)(=O)N2CCOCC2)s1)OCc1ccc(Cl)cc1
Response: -16.7

Query: Quick one: activation (HDL uptake increase) for Cn1c(C(=O)N2CCC(C(N)=O)CC2)cc2cc(Cl)ccc21 ?
Response: -7.74

Query: What value of activation (HDL uptake increase) has been recorded for this entry: O=C1CCN(S(=O)(=O)c2ccccc2)CCN1CCOCc1cccc(F)c1
Response: 7.83

Query: # query: activation (HDL uptake increase) of entry C[C@@H]1CN([C@H](C)CO)C(=O)c2cc(NC(=O)Nc3ccc(C(F)(F)F)cc3)ccc2O[C@H]1CN(C)S(=O)(=O)c1ccc(Cl)cc1
Response: 5.12

Query: Look at this molecule and give its reported activation (HDL uptake increase). CN(CC(=O)Nc1cccc(F)c1)C(=O)C1CC(=O)N(CCc2ccccc2)C1 (configuration not stated)
Response: -13.2

----------
Target: Scavenger receptor class B member 1 (Mus musculus) (UniProt Q61009)
Experiment: enhancers of DiI-HDL lipid transfer via SR-BI – cell-based, ldlA[mSR-BI] CHO, DiI fluorescence, cherry-pick, dose response (AID 602191);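 also: cell fluorescence from internalized DiI-labeled HDL after washing; 0% = median of DMSO wells and 100% = twice the DMSO signal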
Settings: ldlA[mSR-BI] CHO cells, 3 h, at 35 µM (top of the series)
Calls of active or inactive are those of the source.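 How the source made its calls: active means fitted curve reaches 40% activation at a concentration no higher than the top valid tested dose; inconclusive means flat fit between 30% and 70% activation, or poor fit; inactive means uptake decrease, flat fit within 30% of zero, the rest.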
Measurement Label: activation (HDL uptake increase)

Below are worked cases with known answers.
{"Mol Smiles": "CC[C@]12c3[nH]c4cc(-c5ccco5)ccc4c3CCN1C(=O)[C@@H](CC(=O)NC(C)(C)C)C[C@@H]2C(=O)N1CCN(C(=O)c2ccco2)CC1", "Target System": "Scavenger receptor class B member 1 (Mus musculus) (UniProt Q61009)", "Measurement Label": "activation (HDL uptake increase)", "Meas Value": "-20.6% (inactive)"}
{"Mol Smiles": "COc1cccc(/C=N/n2c(SC)nnc2-c2ccccc2)c1O", "Target System": "Scavenger receptor class B member 1 (Mus musculus) (UniProt Q61009)", "Measurement Label": "activation (HDL uptake increase)", "Meas Value": "-1.1% (inactive)"}

// moving on: another record for activation (HDL uptake increase)
Query: Give the measured activation (HDL uptake increase) of O=C(O)CCc1nnc(SCC(=O)Nc2ccc(Br)cc2)[nH]c1=O .
Response: -2.46% (inactive)

----------
Target: Scavenger receptor class B member 1 (Mus musculus)
Assay: enhancers of DiI-HDL lipid transfer via SR-BI – cell-based, ldlA[mSR-BI] CHO, DiI fluorescence, cherry-pick, dose response (AID 602191);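 also: cell fluorescence from internalized DiI-labeled HDL after washing; 0% = median of DMSO wells and 100% = twice the DMSO signal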
Conditions: ldlA[mSR-BI] CHO cells, 3 h, at 35 µM (top of the series)
Residues, ends and D or L forms follow the SMILES beside them.
Property: activation (HDL uptake increase); scope: individual compounds
Note: unit % is implicit; provide only the numeric part.

Observe how each entry below is paired with its result.
{"Compound": "O=C(CC1C[C@H](C(=O)N2CCOCC2)[C@@]2(CCC3CCCC3)c3[nH]c4ccccc4c3CCN2C1=O)NCc1cccc(C(F)(F)F)c1 (stereo not given in full)", "Target System": "Scavenger receptor class B member 1 (Mus musculus)", "activation (HDL uptake increase) (%)": 25.1}
{"Compound": "COc1ccccc1CN1C(=O)CCC1(C)C(=O)NCc1cccnc1 (stereo not given)", "Target System": "Scavenger receptor class B member 1 (Mus musculus)", "activation (HDL uptake increase) (%)": -8.82}
{"Compound": "CC[C@H](C)[C@@H]1NC(=O)[C@H]([C@@H](C)CC)NC(=O)[C@@H](CC(C)C)NC(=O)[C@H](Cc2ccccc2)NC(=O)[C@H](Cc2ccccc2)NC(=O)[C@@H]2CCCN2C(=O)[C@@H]2CCCN2C(=O)[C@H](C(C)C)NC(=O)[C@H](CC(C)C)NC1=O (HELM PEPTIDE1{F.F.[dL].I.I.L.V.P.P}$PEPTIDE1,PEPTIDE1,1:R1-9:R2$$$V2.0)", "Target System": "Scavenger receptor class B member 1 (Mus musculus)", "activation (HDL uptake increase) (%)": 5.97}
{"Compound": "CSc1ccc(S(=O)(=O)NCC(=O)OCC(=O)N(C)Cc2ccccc2)cc1[N+](=O)[O-]", "Target System": "Scavenger receptor class B member 1 (Mus musculus)", "activation (HDL uptake increase) (%)": 4.31}
{"Compound": "C/C(=N\\N1C(=O)c2ccccc2NC1c1ccco1)c1ccccc1O (stereo not given)", "Target System": "Scavenger receptor class B member 1 (Mus musculus)", "activation (HDL uptake increase) (%)": -54.6}
{"Compound": "COc1ccc(C(=O)Nc2nnc(SCC(=O)Nc3ccc(NC(C)=O)cc3)s2)c(OC)c1", "Target System": "Scavenger receptor class B member 1 (Mus musculus)", "activation (HDL uptake increase) (%)": -6.9}
{"Compound": "CC(=O)Nc1ccc(OC(=O)c2ccco2)cc1", "Target System": "Scavenger receptor class B member 1 (Mus musculus)", "activation (HDL uptake increase) (%)": -1.69}
{"Compound": "O=C(O)CCc1nnc(SCC(=O)Nc2cccc(C(F)(F)F)c2)[nH]c1=O", "Target System": "Scavenger receptor class B member 1 (Mus musculus)", "activation (HDL uptake increase) (%)": -1.57}
{"Compound": "O=C1C2C3C=CC(C4CC34)C2C(=O)N1c1nccs1 (stereo not given)", "Target System": "Scavenger receptor class B member 1 (Mus musculus)", "activation (HDL uptake increase) (%)": -0.437}
{"Compound": "O=C1N(C2CCCC2)C[C@@H]2C[C@@H](c3cn[nH]c3-c3ccc(Cl)cc3)N3CCC[C@@]123", "Target System": "Scavenger receptor class B member 1 (Mus musculus)", "activation (HDL uptake increase) (%)": 0.818}

Read the next record carefully.
Query: # get_value(readout='activation (HDL uptake increase)', item= CC(=O)c1cccc(NC(=O)COC(=O)Cn2cnc3ccccc32)c1 )
Response: 12.6
